List of growth inhibition values.
experiment: NCI Yeast Anticancer Drug Screen. Data for the sgs1 mgt1 strain (AID 161);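 note: 0% = growth of cultures given vehicle only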; details: S. cerevisiae sgs1 mgt1 strain, at 50.0 µM, active compounds read high
About 79,000 compounds went through this panel and 15% of them were active in at least one assay; those are over-represented in the sample as a whole.
Numbers only; they are read as %.

- compound: "COC(=O)c1c(-c2ccc(OC)c(OC)c2)cn(C)c1C"
  units of measure: "%"
  growth inhibition: 21

Given the compound NC(=O)C(CCN1CCCCC1)c1ccccc1 (stereo not drawn) , what is its reported growth inhibition? 7.75

Given the compound CC(C)C1CCC(C)(C=O)C1 (stereo not drawn) , what is its reported growth inhibition? -14.3

Given the compound CC1=NN(C(=O)c2ccc(Cl)cc2)C(=O)C1N=Nc1ccc(S(=O)(=O)Nc2ccccn2)cc1 (stereo not drawn) , what is its reported growth inhibition? 14.7

Given the compound O=S(=O)(OC12CCCCC1CN1CCCCC1C2)c1ccc(Br)cc1 (stereo not drawn) , what is its reported growth inhibition? -4.1

Given the compound COC(=O)/C(C#N)=C/c1cccnc1 , what is its reported growth inhibition? 6

Given the compound O=C(O)CCSc1ccccc1 , what is its reported growth inhibition? -13.8

Given the compound O=C1c2ccccc2-c2nc(-c3ccncc3)cc3c2c1nc1ccccc13 , what is its reported growth inhibition? 27.2

Given the compound Brc1ccc2c[n+]3ccccc3cc2c1 , what is its reported growth inhibition? 12

Given the compound CN(NC(=O)/C(=C\c1ccccc1Cl)NC(=O)c1ccccc1)c1cn[nH]c(=O)c1Cl , what is its reported growth inhibition? -16.4

Given the compound Clc1nc(Cl)c2ncnc(Cl)c2n1 , what is its reported growth inhibition? -23.2
